These measurements were taken from ChEMBL document CHEMBL5046251.

assay: Oral bioavailability in beagle dog; type: ADME, organism-based, Canis lupus familiaris; conditions: in vivo
parameter: bioavailability

Incoming: Fill in the blank: the reported bioavailability of `O=C(c1cnc(NCc2cnccn2)nc1)N1CCC2(CCOCC2)C1` is ____.
Outgoing: 100%

----------
experiment: Efflux ratio in human MDR cells; assay type: ADME, cell-based
parameter: efflux ratio
Lab note: jot the number down without any unit.

Incoming: What value of efflux ratio has been recorded for this entry: `O=C(c1cnc(NC2(c3cncnc3)CC2)nc1)N1CCCCC1`
Outgoing: 3.2

----------
experiment: Lipophilicity, log D of the compound in Octanol/buffer by shake-flask method
So basically: logD at 0.7 or higher? That is Criterion met. Lower than 0.7? That is Criterion not met.

molecule | class
O=C(c1cnc(NC2(c3cnccn3)COC2)nc1)N1CCC2(CCOCC2)C1 | Criterion not met
N#C[C@@H]1CCCN(C(=O)c2cnc(NC3(c4cncnc4)CC3)nc2)C1 | Criterion not met
Cc1cccc(C(=O)c2cnc(NCc3cccnc3)nc2)c1 | Criterion met
CC(C)(Nc1ncc(C(=O)N2CC3(CCOCC3)C2)cn1)c1cnccn1 | Criterion not met

Now, please, on to the next compound.
Incoming: Answer whether logD of `N#Cc1cccc(C(=O)c2cnc(NCc3cncnc3)nc2)c1` is greater than or equal to 0.7.
Outgoing: Criterion met

----------
experiment: Clearance in beagle dog by LC-MS/MS analysis; format: ADME, Canis lupus familiaris; settings: in vivo
parameter: clearance
Reply with a number, then the unit it belongs to.

Incoming: Which clearance reading was recorded for the compound `O=C(c1cnc(NCc2cnccn2)nc1)N1CCC2(CCOCC2)C1` ?
Outgoing: 0.21 L/h/kg

----------
test: Apparent intrinsic clearance in human liver microsome; format: ADME; conditions: liver microsomes, read-out: CLH
parameter: CLint scaled (mL/min/kg)
Provide the reading as a plain figure in mL/min/kg.

Incoming: State the recorded CLint scaled for this entry: `N#Cc1cccc(C(=O)c2cnc(NC3(c4cncnc4)CC3)nc2)c1`
Outgoing: 14

----------
assay: Intrinsic clearance in human liver microsomes; assay type: ADME, Microsome
parameter: Intrinsic clearance (µL/min/mg)
Give just the number in µL/min/mg; leave the unit off.

Worked cases, Intrinsic clearance given:
molecule | Intrinsic clearance / µL/min/mg
N#Cc1cccc(C(=O)c2cnc(NCc3ccccc3)nc2)c1 | 48
O=C(c1cnc(NC2(c3cncnc3)CCC2)nc1)N1CCC2(CCOCC2)C1 | 32
CC(C)(Nc1ncc(C(=O)N2CCC3(CCOCC3)C2)cn1)c1cncnc1 | 15

Incoming: Intrinsic clearance for `N#Cc1cccc(C(=O)c2cnc(NC3(c4cncnc4)CC3)nc2)c1` ?
Outgoing: 14

Incoming: Any idea what its Intrinsic clearance is? The compound is `Cc1cccc(C(=O)c2cnc(NCc3cccnc3)nc2)c1`
Outgoing: 51

Incoming: Entry `N#Cc1cccc(C(=O)c2cnc(NC3(c4ccccc4)CC3)nc2)c1` has what Intrinsic clearance?
Outgoing: 26

Incoming: Could you share which Intrinsic clearance value was measured for `N#Cc1cccc(C(=O)c2cnc(NCc3cccnc3)nc2)c1` ?
Outgoing: 38

Incoming: For `O=C(c1cnc(NC2(c3cnccn3)CCC2)nc1)N1CCC2(CCOCC2)C1` , what is its reported Intrinsic clearance?
Outgoing: 14

----------
system: CYP2A4; assay: Inhibition of CYP2A4 (unknown origin) at 3 uM relative to control; type: ADME; conditions: human
parameter: inhibition at 3 µM

Incoming: Give CYP2A4 inhibition at 3 µM for `O=C(c1cnc(NCc2cnccn2)nc1)N1CCC2(CCOCC2)C1`
Outgoing: < 5%

----------
assay: Clearance in rat at 1 mg/kg, iv measured upto 24 hrs by LC-MS/MS analysis; format: ADME, organism-based; conditions: in vivo
parameter: clearance (mL/min/kg)
Kindly provide the numeric value in mL/min/kg only, without the unit symbol.

Incoming: Which clearance reading was recorded for the compound `C[C@H](Nc1ncc(C(=O)N2CCC3(CCOCC3)C2)cn1)c1cnccn1` ?
Outgoing: 30

----------
Target: Biotinidase (Homo sapiens, UniProt P43251)
Sequence (P43251 whole entry): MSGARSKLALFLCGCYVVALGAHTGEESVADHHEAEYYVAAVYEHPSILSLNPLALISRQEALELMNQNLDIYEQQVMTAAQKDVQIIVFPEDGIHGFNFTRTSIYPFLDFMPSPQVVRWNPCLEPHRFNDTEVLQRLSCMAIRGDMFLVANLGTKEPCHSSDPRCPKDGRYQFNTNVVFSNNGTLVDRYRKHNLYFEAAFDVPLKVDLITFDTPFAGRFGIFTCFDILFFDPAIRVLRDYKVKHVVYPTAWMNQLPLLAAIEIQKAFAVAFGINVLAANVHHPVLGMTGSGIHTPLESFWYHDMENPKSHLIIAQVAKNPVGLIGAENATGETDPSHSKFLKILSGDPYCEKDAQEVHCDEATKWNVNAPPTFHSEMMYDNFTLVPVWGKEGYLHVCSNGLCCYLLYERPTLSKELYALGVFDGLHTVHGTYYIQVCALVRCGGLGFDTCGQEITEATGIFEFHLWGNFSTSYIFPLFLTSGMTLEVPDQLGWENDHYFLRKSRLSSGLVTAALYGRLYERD
Assay: Inhibition of N-terminal FLAG/His6-tagged human biotinidase expressed in COS cells using biotinyl-7-amino-4-trifluoromethylcoumarin as substrate preincubated for 10 mins followed by substrate addition and measured after 90 mins
Kindly apply the following: 1 if IC50 is less than 3 µM, 0 in every other case.

Previously resolved entries follow.
compound | class
O=C(c1cnc(NC2(c3cnccn3)CCC2)nc1)N1CCC2(CCOCC2)C1 | 0
C[C@H](Nc1ncc(C(=O)N2CCC3(CCOCC3)C2)cn1)c1cnccn1 | 1
CC(C)(Nc1ncc(C(=O)N2CCC3(CCOCC3)C2)cn1)c1cncnc1 | 1
O=C(c1cnc(NCc2cccnc2)nc1)N1CCC2(CCOCC2)C1 | 0
C[C@@H](Nc1ncc(C(=O)N2CCC3(CCOCC3)C2)cn1)c1cnccn1 | 0
N#C[C@@H]1CCCN(C(=O)c2cnc(NC3(c4cncnc4)CC3)nc2)C1 | 0

Incoming: Consider the compound `O=C(c1cnc(NCc2cnccn2)nc1)N1CC2(CCOCC2)C1` . Is its IC50 strictly less than 3 µM?
Outgoing: 0

Incoming: Is the reported IC50 for N#CC1CCCN(C(=O)c2cnc(NC3(c4cncnc4)CC3)nc2)C1 (racemic) strictly below 3 µM?
Outgoing: 0

Incoming: # TODO verify IC50 < 3 µM strictly for this compound: `CC(C)(Nc1ncc(C(=O)N2CC3(CCOCC3)C2)cn1)c1cnccn1`
Outgoing: 1

----------
test: Clearance in rat at 2 mg/kg, iv measured upto 24 hrs by LC-MS/MS analysis; format: ADME, organism-based; details: in vivo
parameter: clearance (mL/min/kg)
Field format: number, assumed mL/min/kg, no unit text.

Incoming: Which clearance is listed for O=C(c1cnc(NCc2cnccn2)nc1)N1CCC2(CCOCC2)C1 [PFI-653] ?
Outgoing: 19

----------
assay: AUC in rat at 2 mg/kg, iv measured upto 24 hrs by LC-MS/MS analysis; type: ADME, organism-based; set-up: route intravenous, dose 2 mg/kg, time <=24; conditions: in vivo
parameter: AUC at 24 h (ng·h/mL)
All answers are understood in ng·h/mL, so give the number only.

Incoming: Fill blank: measured AUC at 24 h of the compound `O=C(c1cnc(NCc2cnccn2)nc1)N1CCC2(CCOCC2)C1` is ____.
Outgoing: 1790

----------
test: Intrinsic clearance in human liver microsomes; format: ADME, Microsome
The entries below are paired with their reported Intrinsic clearance.

Guide cases for Intrinsic clearance, answers given:
compound | measured-result
CC(C)(Nc1ncc(C(=O)N2CCC3(CCOCC3)C2)cn1)c1cnccn1 | 18 µL/min/mg
C[C@@H](Nc1ncc(C(=O)N2CCC3(CCOCC3)C2)cn1)c1cncnc1 | < 8 µL/min/mg
CS(=O)(=O)[C@@H]1CCCN(C(=O)c2cnc(NC3(c4cncnc4)CC3)nc2)C1 | < 8 µL/min/mg
CS(=O)(=O)[C@H]1CCCN(C(=O)c2cnc(NC3(c4cncnc4)CC3)nc2)C1 | < 8 µL/min/mg
O=C(c1cnc(NC2(c3cncnc3)CC2)nc1)N1CCCCC1 | < 10 µL/min/mg

Incoming: Would you mind telling me what Intrinsic clearance value was observed for `C[C@H](Nc1ncc(C(=O)N2CC3(CCOCC3)C2)cn1)c1cnccn1` ?
Outgoing: < 8 µL/min/mg

Incoming: Need Intrinsic clearance, item O=C(c1cnc(NCc2cnccn2)nc1)N1CCC2(CCOCC2)C1 [PFI-653]
Outgoing: < 8 µL/min/mg

Incoming: # input compound: `C[C@H](Nc1ncc(C(=O)N2CCC3(CCOCC3)C2)cn1)c1cncnc1` ; wanted: its Intrinsic clearance
Outgoing: < 8 µL/min/mg

Incoming: Fill blank: measured Intrinsic clearance of the compound `O=C(c1cnc(NCc2cnccn2)nc1)N1CC2(CCOCC2)C1` is ____.
Outgoing: < 8 µL/min/mg

Incoming: Look up Intrinsic clearance for this compound: `O=C(c1cnc(NC2(c3cnccn3)COC2)nc1)N1CCC2(CCOCC2)C1`
Outgoing: < 8 µL/min/mg
